# System: human apolipoprotein B mRNA
# experiment-description: Inhibition of human apolipoprotein B mRNA levels in HepG2 cells, quantitative real-time PCR
# Format: cell-based
# setup-conditions: HepG2 cells; 50 nm oligonucleotide; variable deoxy gap position
parameter: % INHIB 50 nm (%)

308658 (antisense AGGTTACCAGCCACATGCAG; 9-10-1 2'-MOE gapmer, phosphorothioate, chemistry not fully specified) [compound 308658]: 86
308650 (antisense GCCTCAGTCTGCTTCGCACC; 6-10-4 2'-MOE gapmer, phosphorothioate, chemistry not fully specified) [compound 308650]: 74
308634 (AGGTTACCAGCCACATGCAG; 10-10-0 MOE gapmer, phosphorothioate, chemistry not fully specified) [compound 308634]: 45
